assay explanation: Tanguay_ZF_120hpf_JAW_legacy: (Legacy) Oregon State University Tanguay Lab 120 Hour Post-fertilization zebrafish Assay for Jaw Malformation (AID 2283638)
Inconclusive results are not listed. Activity calls are given as the source filed them. How the source made its calls: active means hit-call score of the fitted dose curve at least 0.9, where 1 is the maximum; inconclusive means response in the unintended direction; inactive means score below 0.9.
Assign a class; possible classes are Yes = active, No = inactive

{"columns": ["mol", "category label"],
 "data": [
  ["CCCN(CCC)N=O", "No"],
  ["CN(C)CCO", "No"],
  ["O=C(N[C@H]1CN2CCC1CC2)c1cc2ccoc2cn1", "No"],
  ["CCCCCCOC(=O)c1ccccc1C(=O)OCCCCCC", "No"]
]}

Prompt: Dear colleague, could you share the recorded outcome for `O=C(O)C(F)(F)C(F)(F)C(F)(F)C(F)(F)C(F)(F)C(F)(F)C(F)(F)C(F)(F)F` when you have a moment?
Response: No

Prompt: Field: outcome | Entry: `O=C(NC(=O)c1c(F)cccc1F)Nc1cc(Cl)c(OC(F)(F)C(F)F)c(Cl)c1`
Response: No

Prompt: What did the test return for `Oc1ccc(Cl)cc1Cl` ?
Response: No

Prompt: What outcome does the record of this test show for `C[C@]12CCC(=O)C=C1CC[C@@H]1[C@@H]2CC[C@]2(C)C(=O)CC[C@@H]12` ?
Response: Yes

Prompt: Please let me know the test result on file for `ClC(Cl)=C(c1ccc(Cl)cc1)c1ccc(Cl)cc1` .
Response: No

Prompt: Which outcome was entered for the molecule `Cc1ccccc1[N+](=O)[O-]` in this test?
Response: No

Origin of the recorded values: PubChem BioAssay (EPA / NIEHS)
